assay: NCI Yeast Anticancer Drug Screen. Data for the mec2-1 strain (AID 157); conditions: S. cerevisiae mec2-1 strain, at 50.0 µM, stronger effect = higher value
This is part of a sample that, as a whole, favours compounds with a hit. Of some 79,000 tested, about 15% had one in any assay.
endpoint: growth inhibition (%)
Please reply with the bare figure in % and do not write the unit itself.

Known results for compounds:
{"compound": "CCOC(=O)C1CN2C(=O)CCC2C1=O (configuration not stated)", "growth inhibition (%)": 15.2}
{"compound": "CCN(CC)C(N)=Nc1cc2ccccc2c2ccccc12", "growth inhibition (%)": -22.8}
{"compound": "CNC(CC(=O)O)C(=O)O (configuration not stated)", "growth inhibition (%)": -3.95}
{"compound": "CC(=O)OC1Cc2ccccc2C(OC(C)=O)Cc2ccccc21 (configuration not stated)", "growth inhibition (%)": 7.4}
{"compound": "OC1C(OCc2ccccc2)OC(COCc2ccccc2)C(OC2OC(COCc3ccccc3)C(OCc3ccccc3)C(OCc3ccccc3)C2OCc2ccccc2)C1OCc1ccccc1 (configuration not stated)", "growth inhibition (%)": -9.85}

Item "CN(C)c1ccc(C(=O)c2ccc([N+](=O)[O-])cc2)cc1" has what recorded growth inhibition?
-10

Quick one: growth inhibition for "C=CC(=O)Nc1ccc(Br)cc1" ?
-9.2

Record request: growth inhibition value, item CC1C(=O)C(c2ccccc2)(c2ccccc2)CC[N+]1(C)C (configuration not stated)
5.4

Given the entry COc1ccc(-c2c(C(C)=O)c(C)n(C3OC(CO)C(O)C(O)C3O)c(=S)c2C#N)cc1 (configuration not stated) , report its measured growth inhibition.
34.2

###

test: NCI Yeast Anticancer Drug Screen. Data for the mlh1 rad18 strain (AID 175); conditions: S. cerevisiae mlh1 rad18 strain growth inhibition; at 50.0 µM; stronger effect = higher value
Compounds without any hit were thinned out: in the full panel of roughly 79,000, 15% have a hit.
endpoint: growth inhibition (%)
Field: numeric (%). Do not append units.

Below: 5 compounds and their reported growth inhibition.
{"query.smiles": "CCOC(=O)COc1ccc(Cl)cc1C", "test.result": -17.2}
{"query.smiles": "O=C(CN1C(=O)c2ccccc2C1=O)NCCO", "test.result": -17.2}
{"query.smiles": "Cc1ccc2c(c1)C(C)(C)CCC2", "test.result": 4.95}
{"query.smiles": "CN1c2ccccc2C(=O)NC12CCN(CCCC(=O)c1ccc(F)cc1)CC2", "test.result": 7}
{"query.smiles": "O=C1COC(c2ccccc2O)=NN1CCCN1CCCC1", "test.result": 25.3}

Reported growth inhibition, compound "N#C/C(=C/c1cccc(Oc2ccccc2)c1)c1ccccc1" : ____
-14.4

# input compound: "S=C(S)NCNC(=S)S.[Zn+2]" ; wanted: its growth inhibition
29.4

###

assay: NCI Yeast Anticancer Drug Screen. Data for the mec2-1 strain (AID 157); conditions: S. cerevisiae mec2-1 strain, at 50.0 µM, stronger effect = higher value
About 79,000 compounds went through this panel and 15% of them were active in at least one assay; those are over-represented in the sample as a whole.
In this section we review reported growth inhibition values for a set of compounds.
Give the quantity in %, number only.

{"query.smiles": "Clc1ccccc1/C=C(/c1ccccc1)c1ccccn1", "endpoint": "growth inhibition", "display.unit": "%", "test.result": 12.3}
{"query.smiles": "COCCCn1c(-c2ccc(Cl)cc2)nn2c(=O)c3ccccc3nc2c1=O", "endpoint": "growth inhibition", "display.unit": "%", "test.result": -1.75}
{"query.smiles": "Nc1nc(N)c2ncn(-c3ccc(Cl)cc3)c2n1", "endpoint": "growth inhibition", "display.unit": "%", "test.result": 14.2}

Can you share its growth inhibition? I mean this compound: "O=C(/C=C(\C(=O)c1ccccc1)c1ccccc1)c1ccc(-c2ccccc2)cc1"
-2.35

Dear colleague, I am looking for the recorded growth inhibition of the following compound: "O=[N+]([O-])c1nccn1CCC[n+]1cccc2ccccc21"
-17.2

# input compound: "NCCCCCOCCCCCN" ; wanted: its growth inhibition
-0.25

###

Parameter: growth inhibition. Scope: all listed entries.
experiment: NCI Yeast Anticancer Drug Screen. Data for the mec2-1 strain (AID 157); details: S. cerevisiae mec2-1 strain, at 50.0 µM, stronger effect = higher value
The panel holds about 79,000 compounds, 15% with a hit somewhere; the sample as a whole holds those more often.
Field format: number, assumed %, no unit text.

{"compound": "Cc1ccc2c(c1)-c1c3c(nn1C)-c1ccccc1SC3O2 (stereo unspecified)", "endpoint": "growth inhibition", "test.result": -7.75}
{"compound": "Clc1ccc(CCn2cncn2)cc1", "endpoint": "growth inhibition", "test.result": -11.9}

Find the recorded growth inhibition belonging to "CC(C)c1nnnn1C12CC3CC(CC(C3)C1)C2" and report it.
-13.2

Find the recorded growth inhibition belonging to "N#CCCN(CCc1ccccn1)CN1C(=O)c2ccccc2C1=O" and report it.
-4.85

Any idea what its growth inhibition is? The compound is Nc1cc2c(cc1I)-c1ccccc1C2O (stereo unspecified)
4.55

Record request: growth inhibition value, item COc1cc2c(cc1OC)C(N)CC2=O (stereo unspecified)
1.4

# lookup: growth inhibition of "NNc1ccc(S(=O)(=O)C(F)F)cc1"
-29.2

Returns the measured growth inhibition for the input compound. Input: "Cn1c(=N)n(CC(=O)NC23CC4CC(CC(C4)C2)C3)c2ccccc21"
-15.4

Looking for the measured growth inhibition of C=CCCCC1(c2ccccc2)C(=O)Oc2ccccc21 (stereo unspecified) , can you help?
2.55

# query: growth inhibition of entry CCOC(=O)C1C(=O)C(=O)N(C)C1c1ccccc1 (stereo unspecified)
16.3

growth inhibition lookup needed for "Cc1nc2ccc(N)cc2oc1=O" , thanks.
15.1

###

growth inhibition by entry:
test: NCI Yeast Anticancer Drug Screen. Data for the mlh1 rad18 strain (AID 175); conditions: S. cerevisiae mlh1 rad18 strain growth inhibition; at 50.0 µM; stronger effect = higher value
The panel holds about 79,000 compounds, 15% with a hit somewhere; the sample as a whole holds those more often.
Report as a plain number; the unit % is understood.

The cases that follow already have their growth inhibition on record.
{"molecule": "C=CC(=O)OCc1ccc(OC)cc1", "growth inhibition, %": 29.5}
{"molecule": "C/C=C(\\C(=C\\C)c1ccc(OC(=O)c2ccccc2)c(C2CCCCC2)c1)c1ccc(O)c(C2CCCCC2)c1", "growth inhibition, %": 45.8}
{"molecule": "O=C1CCC(C(=O)Nc2ccc(Cl)c(Cl)c2)N1 (centres undefined)", "growth inhibition, %": -8.15}
{"molecule": "Cn1c(=O)c2c(nc3sc4nc5ccccc5nc4n32)n(C)c1=O", "growth inhibition, %": 13.1}
{"molecule": "COc1cc(O)c2c(c1)C(=O)C1=C(C2=O)[C@@H](C)OC(C)C1 (some centres undefined)", "growth inhibition, %": 19.8}

For the molecule "C=CCn1c(C23CC4CC(CC(C4)C2)C3)n[nH]c1=S" , what growth inhibition is on record?
-26.3

Param item = "CC(C)c1cc2c(O)c(c1)Cc1cc(C(C)C)cc(c1O)Cc1cc(C(C)C)cc(c1O)Cc1cc(C(C)C)cc(c1O)Cc1cc(C(C)C)cc(c1O)Cc1cc(C(C)C)cc(c1O)C2" ; retrieve measured growth inhibition.
-24.1

Reported growth inhibition, molecule "CC(C)=NOC(=O)Nc1cccc2c1OCO2" : ____
4.25

growth inhibition for Cc1c(C)c2ccc(OCC(O)COC(C)C)c(C)c2oc1=O (centres undefined) ?
-29.6

###

test: NCI Yeast Anticancer Drug Screen. Data for the rad50 strain (AID 155);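 further: 0% = growth of vehicle-only cultures of the same strain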; settings: S. cerevisiae rad50 strain growth inhibition; at 50.0 µM
Compounds without any hit were thinned out: in the full panel of roughly 79,000, 15% have a hit. Calls of active or inactive are those of the source. No stated cut-off is given here; in the data, active means growth inhibition above about 70%; inactive means the rest.
Hello, when you answer, please use one of the following outcomes: Yes = active, No = inactive

Study these solved cases before continuing.
{"compound": "CCOC(=O)C(C)C(=O)OCC", "label.class": "No"}
{"compound": "CCCN(CCC)S(=O)(=O)c1ccc(NC(=O)Oc2ccc([N+](=O)[O-])cc2)cc1", "label.class": "No"}
{"compound": "c1ccc(NCc2nc3ccccc3[nH]2)cc1", "label.class": "No"}
{"compound": "Nc1ncnc(N2CCOCC2)n1", "label.class": "No"}
{"compound": "CC(=O)Oc1cc(O)oc(=O)c1", "label.class": "No"}

For this compound, state the assay outcome: "Cc1ccc(Cl)cc1N"
No

# fetch the recorded call for CC1(C)C([N+](C)(C)C)CS1(=O)=O (stereo not drawn) here
No

What is the recorded call for this compound in the test? "Cc1cc(C)c(NC(=O)Nc2ccccc2F)cc1C"
No

###

Reported growth inhibition values for the following molecules.
test: NCI Yeast Anticancer Drug Screen. Data for the mec2-1 strain (AID 157); details: S. cerevisiae mec2-1 strain, at 50.0 µM, stronger effect = higher value
The panel holds about 79,000 compounds, 15% with a hit somewhere; the sample as a whole holds those more often.
Field: numeric (%). Do not append units.

{"molecule": "CC(Oc1ccccc1-c1ccccc1)C(=O)N(C)C (stereo not drawn)", "display.unit": "%", "test.result": -0.2}

Let us examine a further case.
Param item = "CCOC(=O)CC/C(=C\NC(=O)c1ccccc1)NC(=O)c1ccccc1" ; retrieve measured growth inhibition.
-26.4

Data origin, for the record: PubChem BioAssay (NCI)
